The entries below come with measured logP values attached.

Use these answered entries as a reference point.
Cn1cnc([N+](=O)[O-])c1Sc1nc(Cl)nc2ncn(C)c12
1.5
CN1C=NC([N+](=O)[O-])C1Sc1nc2ncn(C)c2c(=O)[nH]1 (stereo not given)
1.21
Cn1cnc([N+](=O)[O-])c1Sc1nc(=S)[nH]c2ncn(C)c12
1.19
COc1nc(Sc2c([N+](=O)[O-])ncn2C)c2c(ncn2C)n1
1.45

// Cn1cnc([N+](=O)[O-])c1Sc1nc(SCc2ccccc2)nc2ncn(C)c12 : logP value = 2.91

###

logP of 2 or higher: True. Under 2: False.

CSc1nc(Sc2c([N+](=O)[O-])ncn2C)c2c(ncn2C)n1
False
Cn1cnc([N+](=O)[O-])c1Sc1nc(=O)[nH]c2ncn(C)c12
False
Cn1cnc([N+](=O)[O-])c1Sc1nc2ncn(C)c2c(=S)[nH]1
False
Cn1cnc([N+](=O)[O-])c1Sc1nc(OCc2ccccc2)nc2ncn(C)c12
True
C=CCSc1nc(Sc2c([N+](=O)[O-])ncn2C)c2c(ncn2C)n1
True

Field: next compound
Does the compound Cn1cnc([N+](=O)[O-])c1Sc1nc(Sc2c([N+](=O)[O-])ncn2C)c2c(ncn2C)n1 have recorded logP that is 2 or more?
False

Data credit: the SangsterLogP compilation
